Experiment: Hygroscopicity of the free base and its salts
Assay type: physicochemical
Settings: solid form
Endpoint Label: Hygroscopic

[[record]]
compound = "CCC1(c2cccc(OC(=O)Nc3ccc(C(=O)O)cc3)c2)CCCCN(C)C1.O=P(O)(O)O (stereo not shown)"
observed = "no"

[[record]]
compound = "CCC1(c2cccc(OC(=O)Nc3ccc(C(=O)O)cc3)c2)CCCCN(C)C1.Cl (stereo not shown) [meptazinol p-amino-benzoylcarbamate•HCl]"
observed = "yes"

[[record]]
compound = "CCC1(c2cccc(OC(=O)Nc3ccc(C(=O)O)cc3)c2)CCCCN(C)C1.O=C(O)/C=C\\C(=O)O (stereo not shown)"
observed = "no"

[[record]]
compound = "CCC1(c2cccc(OC(=O)Nc3ccc(C(=O)O)cc3)c2)CCCCN(C)C1 (stereo not shown) [meptazinol p-amino-benzoylcarbamate]"
observed = "yes"

